- tested_target: PD-L1 (Homo sapiens (Human), UniProt Q9NZQ7)
- Sequence (Q9NZQ7 19-238): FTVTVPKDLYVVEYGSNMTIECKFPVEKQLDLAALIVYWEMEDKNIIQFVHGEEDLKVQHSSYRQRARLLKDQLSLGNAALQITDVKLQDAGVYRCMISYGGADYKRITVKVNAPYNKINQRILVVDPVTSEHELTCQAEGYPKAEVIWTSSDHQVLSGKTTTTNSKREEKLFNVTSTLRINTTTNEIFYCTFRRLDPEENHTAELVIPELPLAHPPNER
- Sequence (Q9NZQ7 19-238): as above
- assay_method_text: PD-L1/PD-L1 dimerization biochemical protein-protein interaction assay (ALPHA)
- Assay type: binding
- conditions_used: 0.5 nM His tagged PD-L1 and 0.5 nM FLAG tagged PD-L1, Table 4B, read-out: AC50 PDL1 Dimer 1 nM
value_kind: AC50 (nM)

- mol_smiles: "COc1nc(-c2cccc(-c3cccc4c3CC[C@@H]4Oc3nc(OC)c(CNC[C@H]4C[C@H](O)C4)cc3C(F)(F)F)c2Cl)ccc1CNC[C@@H]1CCC(=O)N1"
  reading_unit: "nM"
  AC50: 2.2

1. COc1nc(-c2cccc(-c3cccc4c3CC[C@@H]4Oc3nc(OC)c(CNCC(=O)O)cc3C(F)(F)F)c2Cl)ccc1CNC[C@@H]1CCC(=O)N1
2. COc1nc(-c2cccc(-c3cccc4c3CC[C@@H]4Oc3nc(OC)c(CN[C@@H](C)C(=O)O)cc3C)c2Cl)ccc1CNC[C@@H]1CCC(=O)N1
Lookup: Quick check, higher AC50 between 1 and 2 ? Please identify the chosen entry by its label.
Found: 2
